molecular target: human recombinant GST cleaved CSNK1D (Homo sapiens); construct: GST (cleaved yes); assay: Purified Enzyme Assay (ADP-Glo CSNK1D Kinase Assay); details: 2 nM CSNK1D; peptide substrate 150 μM; ATP 20 μM; 45 minutes at room temperature
Sequence (P48730 whole entry): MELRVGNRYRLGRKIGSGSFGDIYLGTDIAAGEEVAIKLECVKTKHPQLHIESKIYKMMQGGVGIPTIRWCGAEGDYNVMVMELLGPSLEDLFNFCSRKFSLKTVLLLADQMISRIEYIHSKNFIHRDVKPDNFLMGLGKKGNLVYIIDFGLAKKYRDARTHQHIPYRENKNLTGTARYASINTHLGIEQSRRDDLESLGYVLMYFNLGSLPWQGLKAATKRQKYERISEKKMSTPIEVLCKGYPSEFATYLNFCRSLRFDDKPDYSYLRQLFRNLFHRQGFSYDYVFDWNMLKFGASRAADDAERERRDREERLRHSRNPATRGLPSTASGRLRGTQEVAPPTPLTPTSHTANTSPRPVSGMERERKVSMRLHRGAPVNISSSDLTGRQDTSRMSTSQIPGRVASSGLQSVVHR
pIC50: −log10 of the molar value.
READOUT_NAME: pIC50

Before answering, review these 5 worked examples.
[
  {
    "MOLECULE": "Fc1ccc(-c2nn3c(c2-c2ccnc4[nH]ncc24)COC2(C3)CC2(F)F)nc1 (single isomer, unassigned) [Example 433]",
    "READOUT_NAME": "pIC50",
    "RECORDED_NUMBER": 8.40
  },
  {
    "MOLECULE": "Fc1ccc(-c2nn3c(c2-c2ccnc4[nH]c(C(F)F)cc24)COCC3)nc1 [Example 75]",
    "READOUT_NAME": "pIC50",
    "RECORDED_NUMBER": 7.82
  },
  {
    "MOLECULE": "Cc1cc(-c2c(-c3ccc(F)cn3)nn3c2O[C@H](C)C[C@H]3C)c2cn[nH]c2n1 (single isomer, unassigned) [Example 208]",
    "READOUT_NAME": "pIC50",
    "RECORDED_NUMBER": 7.59
  },
  {
    "MOLECULE": "CC1(C)Cn2nc(-c3ccc(F)cn3)c(-c3cc(N)n4nccc4c3)c2CO1 [Example 380]",
    "READOUT_NAME": "pIC50",
    "RECORDED_NUMBER": 8.00
  },
  {
    "MOLECULE": "Cc1cn2nccc2cc1-c1c(-c2ccc(F)cn2)nn2c1OCC(C)(C)C2 [Example 451]",
    "READOUT_NAME": "pIC50",
    "RECORDED_NUMBER": 6.88
  }
]

(A) COc1cnccc1-c1c(-c2ccc(F)cn2)nn2c1COC(C)(C)C2 [Example 130]
(B) Cc1cc(-c2c(-c3ccc(F)cc3)nn3c2[C@H]2C[C@H]2C3)c2cn[nH]c2n1 (single isomer, unassigned) [Example 277]
**Query** // pick larger pIC50 from pair: A vs B Which one? Tell me its label.
**Result** B

Sourced from patent US20230339970A1
